# Assay Target: BTK (Homo sapiens (Human))
# Measurement Notes: Determination of drug-kinase residence time (TR-FRET tracer competition, occupancy after washout)
# Format: binding
# Run Parameters: 24 h of washout; 1.5 μM compound, 500 nM BTK
Readout: % occupany at 24 h (%)
Form entry: value (%) — number only.

Some entries whose results are on file:
[[record]]
molecule = "CN1CCN(C(C)(C)C=C(C#N)C(=O)N2CCC[C@@H](n3c(=O)n(-c4ccc(Oc5ccccc5)cc4)c4c(N)nccc43)C2)CC1=O [Compound 18]"
numeric_readout = 31.704

[[record]]
molecule = "CC(C)(C=C(C#N)C(=O)N1CCC[C@@H](n2c(=O)n(-c3ccc(Oc4ccccc4)cc3)c3c(N)nccc32)C1)N1CCOCC1 [Compound 4]"
numeric_readout = 18.2

[[record]]
molecule = "CC1(C=C(C#N)C(=O)N2CCC[C@@H](n3c(=O)n(-c4ccc(Oc5ccccc5)cc4)c4c(N)nccc43)C2)CCC1 [Compound 3]"
numeric_readout = 46.073


Now look at this one.
**Q:** // lookup % occupany at 24 h for CC(C)(C=C(C#N)C(=O)N1CCC[C@@H](n2c(=O)n(-c3ccc(Oc4ccccc4)cc3)c3c(N)nccc32)C1)N1CCN(C2COC2)CC1 [Compound 5]
**A:** 57.488

* * *

// reported pIC50 for each item listed
# Assay Target: BTK (Homo sapiens (Human), UniProt Q06187)
# Sequence (Q06187 whole entry): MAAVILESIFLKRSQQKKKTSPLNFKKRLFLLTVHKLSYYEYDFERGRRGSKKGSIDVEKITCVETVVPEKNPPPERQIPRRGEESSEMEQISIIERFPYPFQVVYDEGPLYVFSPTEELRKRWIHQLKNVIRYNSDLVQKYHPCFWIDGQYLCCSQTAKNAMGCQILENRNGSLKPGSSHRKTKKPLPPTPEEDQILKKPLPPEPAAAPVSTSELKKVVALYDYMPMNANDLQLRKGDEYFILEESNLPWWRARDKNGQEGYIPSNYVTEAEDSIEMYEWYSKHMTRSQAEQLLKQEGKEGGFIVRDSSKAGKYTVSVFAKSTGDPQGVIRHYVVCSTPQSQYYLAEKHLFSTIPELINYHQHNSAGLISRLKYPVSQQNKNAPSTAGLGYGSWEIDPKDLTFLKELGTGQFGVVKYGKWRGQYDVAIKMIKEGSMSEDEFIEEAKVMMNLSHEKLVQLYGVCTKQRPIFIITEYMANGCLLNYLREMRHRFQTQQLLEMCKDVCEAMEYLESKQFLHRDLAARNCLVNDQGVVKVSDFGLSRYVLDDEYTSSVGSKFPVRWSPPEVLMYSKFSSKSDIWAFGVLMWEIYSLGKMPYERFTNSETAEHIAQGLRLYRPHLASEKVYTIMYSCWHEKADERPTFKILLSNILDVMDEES
# Measurement Notes: BTK enzymatic activity assay (Caliper-based kinase assay)
# Format: biochemical
# Run Parameters: human recombinant BTK 0.5 nM, ATP 16 μM, 3 h room temperature
Keep in mind that pIC50 stands for -log10 of concentration in molar terms.

[[record]]
compound = "COC[C@@H]1CCCN1C(C)(C)C=C(C#N)C(=O)N1CCC[C@@H](n2c(=O)n(-c3ccc(Oc4ccccc4)cc3)c3c(N)nccc32)C1 [Compound 63]"
numeric_readout = 8.85


**Q:** // lookup pIC50 for CC(C)(C=C(C#N)C(=O)N1CCC[C@@H](n2c(=O)n(-c3ccc(Oc4ccccc4)c(F)c3)c3c(N)nccc32)C1)N1CCN(C2COC2)CC1 [Compound 26]
**A:** 8.46

**Q:** Proceed to CC1(C=C(C#N)C(=O)N2CCC[C@@H](n3c(=O)n(-c4ccc(Oc5ccccc5)cc4)c4c(N)nccc43)C2)CCOCC1 [Compound 37]
**A:** 8.37

**Q:** Proceed to N#CC(=CC1CC1(F)F)C(=O)N1CCC[C@@H](n2c(=O)n(-c3ccc(Oc4ccccc4)cc3)c3c(N)nccc32)C1 (stereo partly drawn) [Compound 52]
**A:** 7.92

**Q:** Proceed to CC(C)(C=C(C#N)C(=O)N1CCC[C@@H](n2c(=O)n(-c3ccc(Oc4ccccc4)cc3)c3c(N)nccc32)C1)N1CCNC(=O)C1 [Compound 21]
**A:** 8.34

**Q:** Proceed to CCN1CCN(C(C)(C)C=C(C#N)C(=O)N2CCC[C@@H](n3c(=O)n(-c4ccc(Oc5ccccc5)cc4)c4c(N)nccc43)C2)CC1=O [Compound 40]
**A:** 8.24

* * *

# Assay Target: BTK (Homo sapiens (Human))
# Measurement Notes: Determination of drug-kinase residence time (TR-FRET tracer competition, occupancy after washout)
# Format: binding
# Run Parameters: 6 h of washout; 1.5 μM compound, 500 nM BTK
// reported % occupany at 6 h for each item listed
Form entry: value (%) — number only.

Some entries whose results are on file:
[[record]]
item_smiles = "N#CC(=CC1CCOCC1)C(=O)N1CCC[C@@H](n2c(=O)n(-c3ccc(Oc4ccccc4)cc3)c3c(N)nccc32)C1"
readout = "% occupany at 6 h"
unit_descriptor = "%"
numeric_readout = 85.49

[[record]]
item_smiles = "CC(C)(C=C(C#N)C(=O)N1CCC[C@H]1Cn1c(=O)n(-c2ccc(Oc3ccccc3)cc2)c2c(N)nccc21)N1CCOCC1"
readout = "% occupany at 6 h"
unit_descriptor = "%"
numeric_readout = 76.396

[[record]]
item_smiles = "CN1CCN(C(C)(C)C=C(C#N)C(=O)N2CCC[C@@H](n3c(=O)n(-c4ccc(Oc5ccccc5)cc4)c4c(N)nccc43)C2)CC1=O"
readout = "% occupany at 6 h"
unit_descriptor = "%"
numeric_readout = 73.513


Now look at this one.
**Q:** // lookup % occupany at 6 h for COC(=O)N1CCN(C(C)(C)C=C(C#N)C(=O)N2CCC[C@H]2Cn2c(=O)n(-c3ccc(Oc4ccccc4)cc3)c3c(N)nccc32)CC1
**A:** 85.356

* * *

# Assay Target: BTK (Homo sapiens (Human), UniProt Q06187)
# Measurement Notes: Determination of drug-kinase residence time (TR-FRET tracer competition, occupancy after washout)
# Format: binding
# Run Parameters: 1 h of washout; 1.5 μM compound, 500 nM BTK
Readout: % occupany at 1 h (%)
Form entry: value (%) — number only.

Some entries whose results are on file:
[[record]]
item_smiles = "N#CC(=CC1CCC1)C(=O)N1CCC[C@@H](n2c(=O)n(-c3ccc(Oc4ccccc4)cc3)c3c(N)nccc32)C1"
numeric_readout = 93.335

[[record]]
item_smiles = "CC(C)(C)C=C(C#N)C(=O)N1CCC[C@H]1Cn1c(=O)n(-c2ccc(Oc3ccccc3)cc2)c2c(N)nccc21"
numeric_readout = 95.906

[[record]]
item_smiles = "COC(=O)N1CCN(C(C)(C)C=C(C#N)C(=O)N2CCC[C@H]2Cn2c(=O)n(-c3ccc(Oc4ccccc4)cc3)c3c(N)nccc32)CC1"
numeric_readout = 91.927


**Q:** // lookup % occupany at 1 h for CC(C)(C=C(C#N)C(=O)N1CCC[C@@H](n2c(=O)n(-c3ccc(Oc4ccccc4)cc3)c3c(N)nccc32)C1)N1CCOCC1
**A:** 90.005

**Q:** Proceed to CN1CCN(C(C)(C)C=C(C#N)C(=O)N2CCC[C@@H](n3c(=O)n(-c4ccc(Oc5ccccc5)cc4)c4c(N)nccc43)C2)CC1=O
**A:** 93.065

**Q:** Proceed to COC(=O)N1CCN(C(C)(C)C=C(C#N)C(=O)N2CCC[C@@H](n3c(=O)n(-c4ccc(Oc5ccccc5)cc4)c4c(N)nccc43)C2)CC1
**A:** 94.392

**Q:** Proceed to CC(C)(C=C(C#N)C(=O)N1CCC[C@H]1Cn1c(=O)n(-c2ccc(Oc3ccccc3)cc2)c2c(N)nccc21)N1CCOCC1
**A:** 91.481

* * *

# Assay Target: BTK (Homo sapiens (Human), UniProt Q06187)
# Measurement Notes: Determination of drug-kinase residence time (TR-FRET tracer competition, occupancy after washout)
# Format: binding
# Run Parameters: 1 h of washout; 1.5 μM compound, 500 nM BTK
Threshold check on % occupany at 1 h: strictly below 90% is rule met; on or above 90% is rule not met.

[[record]]
compound = "CC1(C=C(C#N)C(=O)N2CCC[C@@H](n3c(=O)n(-c4ccc(Oc5ccccc5)cc4)c4c(N)nccc43)C2)CCC1 [Compound 3]"
class_name = "rule met"

[[record]]
compound = "COCCN1CCN(C(C)(C)C=C(C#N)C(=O)N2CCC[C@@H](n3c(=O)n(-c4ccc(Oc5ccccc5)cc4)c4c(N)nccc43)C2)CC1 [Compound 9]"
class_name = "rule not met"

[[record]]
compound = "CC#CC(=O)N1CCC[C@@H](n2c(=O)n(-c3ccc(Oc4ccccc4)cc3)c3c(N)nccc32)C1 [Compound 17]"
class_name = "rule met"

[[record]]
compound = "CN1CCC(C(C)(C)C=C(C#N)C(=O)N2CCC[C@@H](n3c(=O)n(-c4ccc(Oc5ccccc5)cc4)c4c(N)nccc43)C2)CC1 [Compound 7]"
class_name = "rule met"


Okay, now this compound:
**Q:** Strictly below 90% in % occupany at 1 h? N#CC(=CC1CCOCC1)C(=O)N1CCC[C@@H](n2c(=O)n(-c3ccc(Oc4ccccc4)cc3)c3c(N)nccc32)C1 [Compound 2]
**A:** rule not met

* * *

# Assay Target: BTK (Homo sapiens (Human), UniProt Q06187)
# Measurement Notes: Determination of drug-kinase residence time (TR-FRET tracer competition, occupancy after washout)
# Type: binding
# Run Parameters: 24 h of washout; 1.5 μM compound, 500 nM BTK
// reported % occupany at 24 h for each item listed
Form entry: value (%) — number only.

Some entries whose results are on file:
[[record]]
item_smiles = "N#CC(=CC1CCC1)C(=O)N1CCC[C@@H](n2c(=O)n(-c3ccc(Oc4ccccc4)cc3)c3c(N)nccc32)C1"
assay_target = "BTK (Homo sapiens (Human), UniProt Q06187)"
numeric_readout = 80.873

[[record]]
item_smiles = "COC(=O)N1CCN(C(C)(C)C=C(C#N)C(=O)N2CCC[C@@H](n3c(=O)n(-c4ccc(Oc5ccccc5)cc4)c4c(N)nccc43)C2)CC1"
assay_target = "BTK (Homo sapiens (Human), UniProt Q06187)"
numeric_readout = 49.145

[[record]]
item_smiles = "COC(=O)N1CCN(C(C)(C)C=C(C#N)C(=O)N2CCC[C@H]2Cn2c(=O)n(-c3ccc(Oc4ccccc4)cc3)c3c(N)nccc32)CC1"
assay_target = "BTK (Homo sapiens (Human), UniProt Q06187)"
numeric_readout = 50.188

[[record]]
item_smiles = "COCCN1CCN(C(C)(C)C=C(C#N)C(=O)N2CCC[C@@H](n3c(=O)n(-c4ccc(Oc5ccccc5)cc4)c4c(N)nccc43)C2)CC1"
assay_target = "BTK (Homo sapiens (Human), UniProt Q06187)"
numeric_readout = 31.4


**Q:** // lookup % occupany at 24 h for CC(C)(C=C(C#N)C(=O)N1CCC[C@H]1Cn1c(=O)n(-c2ccc(Oc3ccccc3)cc2)c2c(N)nccc21)N1CCOCC1
**A:** 22.922

**Q:** Proceed to CC(C)(C)C=C(C#N)C(=O)N1CCC[C@@H](n2c(=O)n(-c3ccc(Oc4ccccc4)cc3)c3c(N)nccc32)C1
**A:** 70.975

The measured values listed here are drawn from patent US9688676B2.
